# Test system: SF-295 CNS
# METHOD: NCI-60 one-dose screen, 48 h (100 = growth as untreated, 0 = no growth, -100 = all killed)
# SETTINGS: 10 µM unless noted
About 83,000 compounds went through this panel and 20% of them were active in at least one assay; those are over-represented in the sample as a whole.
Readings of growth for the listed molecules
Numbers only here, please. The scale is %.

Query: Quick one: growth for COc1ccc(NC(=O)CSc2oc(-c3ccccc3)nc2S(=O)(=O)c2ccc(Cl)cc2)c(OC)c1 ?
Response: 53.6

Query: Give its growth value. Item: FC(F)(F)c1cc(N2CCCCC2)nc(NCCCNc2ccnc3cc(Cl)ccc23)n1
Response: 51.1

Query: Value lookup for growth; key = COc1cc2c(c(OC)c1OC)CCC(c1cccc(C(=O)Nc3ccccc3Br)c1)O2 (centres undefined)
Response: 94.9

---

# System: A498 renal
# METHOD: NCI-60 one-dose screen, 48 h
# SETTINGS: 10 µM unless noted
# Description: Growth inhibition of the A498 human tumor cell line is measured as a screen for anti-cancer activity. Cells are grown in 96 well plates and exposed to the test compound for 48 hours. Compounds are tested at a single concentration, which is 10^-5 M for most compounds. The reported endpoint is percent growth (GI% or GIPRCNT), where numbers from 0 - 100% represent growth inhibition, and numbers from -100% - 0 represent cell death. For example, a value of 40 represents 60% growth inhibition. […]
About 83,000 compounds went through this panel and 20% of them were active in at least one assay; those are over-represented in the sample as a whole. Activity calls are given as the source filed them. Rule for the calls: active = growth percent below 10; inactive = the rest.
Give one outcome, nothing more. List: TRUE = active, FALSE = inactive

MOLECULE | GROUP
Cc1ccc(-c2nn(CC(=O)N3CCOCC3)c(N)c2C#N)cc1 | FALSE
COc1ccc(S(=O)(=O)N(C)c2oc(-c3ccc(Cl)cc3)nc2C#N)cc1 | FALSE
CNC1=C([N+](=O)[O-])C(c2ccc(OC)cc2)C(C#N)=C(c2ccc[nH]2)O1 (centres undefined) | FALSE

Next molecule, please.
Query: Assay result, entry O=C(/C=C\c1ccc(O)c(O)c1)c1ccccc1O — outcome?
Response: FALSE

---

# Test system: NCI-H460 lung
# METHOD: NCI-60 one-dose screen, 48 h
# SETTINGS: 10 µM unless noted
The panel holds about 83,000 compounds, 20% with a hit somewhere; the sample as a whole holds those more often. The source made the active and inactive calls. How the source made its calls: active means growth percent below 10; inactive means the rest.
// classify into active, inactive

Reference set (2 entries):
COMPOUND STRING | SYSTEM UNDER TEST | GROUP
CC(C)=CC(=O)C1C(=O)c2ccccc2C1=O | NCI-H460 lung | inactive
CCOC(=O)c1c(C)n2c(=O)cc(C)c3c(OC(C)=O)c(OC(C)=O)cc1c32 | NCI-H460 lung | inactive

Query: Recorded test call requested for Cn1cc(-c2csc(-c3cn(C)c4ccc(F)cc34)n2)c2cnccc21
Response: active

Query: Lab log entry: CCN1CCN(c2nc(NNC(=O)c3ccc(OC)cc3)nc(N3CCN(C(c4ccccc4)c4ccccc4)CC3)n2)CC1 — outcome as called in the assay?
Response: active

Query: Identify the outcome logged in this assay for the compound shown: CCCCCCCCCCCCCC[n+]1ccc2c(C)c3c(c(C)c2c1)c1cc(O)ccc1n3CC
Response: active

Query: So what was the verdict on Cc1cc([N+](=O)[O-])ccc1NC(=O)c1ccc2c(c1)nc(-c1ccccc1)n2C1CCCCC1 in this test?
Response: inactive

Query: Test call, this compound: O=C(/C=C\c1ccc(O)c(O)c1)c1ccccc1O
Response: inactive

Query: # lookup: test call for COc1nc2ccccc2cc1/C=[N+](\[O-])c1ccccc1
Response: inactive

Query: Kindly provide the recorded test outcome for the following compound: CC1(C)CC[C@]2(CO)CC[C@]3(C)C(=CC[C@@H]4[C@@]5(C)CCNCC(C)(C)[C@@H]5CC[C@]43C)[C@@H]2C1
Response: inactive

---

Readings of growth for the listed compounds
# Test system: HOP-62 NSCLC
# METHOD: NCI-60 one-dose screen, 48 h (100 = growth as untreated, 0 = no growth, -100 = all killed)
# SETTINGS: 10 µM unless noted
Compounds without any hit were thinned out: in the full panel of roughly 83,000, 20% have a hit.
Kindly provide the numeric value in % only, without the unit symbol.

The cases that follow already have their growth on record.
COMPOUND | READING UNIT | growth
O=C(CN1C(=O)NC2NC(=O)NC21)N/N=C/c1cccc([N+](=O)[O-])c1 (stereo not given) | % | 107
O=C1C(Nc2ccc(Br)cc2)=C(I)C(=O)c2ncccc21 | % | 42.1
CC/C(=C(/c1ccc(Cl)cc1)c1ccc(OCCCN(C)C)cc1)c1ccc(OC)cc1 | % | 99.1
COc1cc(OCc2cccc(-c3ccc4c(c3)OCCO4)c2C)cc(OC)c1C=O | % | 73.4

Continue with the next compound.
Query: Which growth value belongs to CCCCCN(CCCCC)CC(O)c1c(Cl)ccc2ccccc12 (stereo not given) ?
Response: 80.5

---

# Test system: UACC-62 melanoma
# METHOD: NCI-60 one-dose screen, 48 h
# SETTINGS: 10 µM unless noted
About 83,000 compounds went through this panel and 20% of them were active in at least one assay; those are over-represented in the sample as a whole. The source made the active and inactive calls. Rule for the calls: active = growth percent below 10; inactive = the rest.
Give your call using only these classes: Yes for active, No for inactive

MOLECULE | GROUP
[2H]C([2H])([2H])Oc1ccc(/C=C/C(=O)/C=C(O)/C=C/c2ccc(OC([2H])([2H])[2H])c(OC([2H])([2H])[2H])c2)cc1OC([2H])([2H])[2H] | No
CC(C)(C)n1cc(-c2ccnc(NCCNS(=O)(=O)c3ccc(C(F)(F)F)cc3)c2)c(-c2ccccc2)n1 | No
C/C=C(/C)C(=O)O[C@@H]1CC(C)(C)CC2C34OC(=O)[C@@]21CC[C@@]3(C)[C@]1(C)CCC2C(C)(C)C(=O)CC[C@]2(C)C1C[C@@H]4O (some centres undefined) | No
Cc1ccc2c(c1)CC(O)CC1C(=O)N(CCO)CC(=O)N21 (centres undefined) | No
CCN1C(=O)N(CC)C2C1NN=c1s/c(=C\c3ccc(F)cc3)c(=O)n12 (centres undefined) | No

Query: What was the test verdict on COc1ccc(-n2c(=O)n(-c3ccc(-c4nc5ccc(F)cc5s4)cc3)c(=O)c3cccnc32)cc1 ?
Response: No

Query: Any idea what this test logged for COc1ccc(C2CC(=O)Oc3c(OC)c4c(c(OC)c32)OCO4)cc1 (centres undefined) ?
Response: No

Query: What classification did CN1CCN(c2ccc(Nc3ncc4[nH]c(=O)n(Cc5ccccc5N)c4n3)cc2)CC1 end up with in this test?
Response: No

---

# Tested on: HOP-92 NSCLC
# METHOD: NCI-60 one-dose screen, 48 h
# SETTINGS: 10 µM unless noted
Compounds without any hit were thinned out: in the full panel of roughly 83,000, 20% have a hit. The source made the active and inactive calls. The calls were made as follows: active = growth percent below 10; inactive = the rest.
// classify into yes (1) = active, no (0) = inactive

Illustrative cases are given below, each with its answer.
COMPOUND | GROUP
COc1cc2c(c(OC)c1OC)C(=O)CC(c1cccc(C(=O)Nc3ccc(Br)cc3)c1)O2 (configuration not stated) | yes (1)
Cc1cc(=O)oc2cc(Oc3nc(-c4ccccc4)cn4c(-c5ccccc5)cnc34)ccc12 | no (0)
Cc1cc2nc(C(Cl)Cl)nc(-c3ccccc3)n2n1 | no (0)
O=C(Nc1ncc(Cc2cc(C(F)(F)F)ccc2Cl)s1)C(=S)N1CCOCC1 | no (0)
O=C1NCCN1/N=C/c1c(Cl)n(Cc2ccc(Cl)cc2)c2ccccc12 | no (0)

Query: Could you check what this test reported for C#Cc1c(I)n(C2OC(CO[Si](C)(C)C(C)(C)C)C3OC(C)(C)OC32)c(=O)[nH]c1=O (configuration not stated) ?
Response: yes (1)

Query: Recorded call for COC(=O)c1nc(-c2ccc(C)cc2)oc1N1CCOCC1 ?
Response: no (0)

Query: Kindly provide the recorded test outcome for the following compound: CCCn1cnc2c(c1=N)C(c1ccc(Cl)cc1)c1sc3c(F)cccc3c1O2 (configuration not stated)
Response: no (0)

Query: Kindly provide the recorded test outcome for the following compound: Cc1cccc(C)c1NC(=O)Nc1ccccc1
Response: no (0)

Query: What was the test verdict on CC1(C)CCC[C@]23C(=O)O[C@](O)(C(=O)C4=C[C@@](C)(/C=C/CCCc5ccc6ccc7cccc8ccc5c6c78)CC[C@@]42O)[C@@H]13 ?
Response: yes (1)

Query: Dear colleague, could you share the recorded outcome for COc1cccc(/C=C2\CCc3ccccc3C2=O)c1 when you have a moment?
Response: no (0)

Query: # fetch the recorded call for COC(=O)[C@@H](Cc1c[nH]c2ccccc12)NC(=O)[C@H](Cc1ccccc1)NCc1ccncc1 here
Response: no (0)
